# test.name: Lipophilicity, log D of the compound by HPLC/UV method
# Type: physicochemical
Below, each entry is listed with its recorded logD.

compound: C[C@H](NP(=O)(OC[C@H]1O[C@@](C#N)(c2ccc3c(N)ncnn23)[C@](C)(O)[C@@H]1O)Oc1ccccc1)C(=O)OCc1ccccc1 (stereo partly specified)
logD: 2.2
//
compound: C[C@H](NP(=O)(OC[C@H]1O[C@@](C#N)(c2ccc3c(N)ncnn23)[C@](C)(O)[C@@H]1O)Oc1ccccc1)C(=O)OCC(C)(C)C (stereo partly specified)
logD: 2.3
//
compound: CC[C@H](C)OC(=O)[C@H](C)NP(=O)(OC[C@H]1O[C@@](C#N)(c2ccc3c(N)ncnn23)[C@](C)(O)[C@@H]1O)Oc1ccccc1 (stereo partly specified)
logD: 2.1
//
compound: C[C@H](NP(=O)(OC[C@H]1O[C@@](C#N)(c2ccc3c(N)ncnn23)[C@](C)(O)[C@@H]1O)Oc1ccccc1)C(=O)OC1CCCC1 (stereo partly specified)
logD: 2.2
//
compound: CC(C)OC(=O)[C@H](C)NP(=O)(OC[C@H]1O[C@@](C#N)(c2ccc3c(N)ncnn23)[C@]2(C)OC(=O)O[C@H]12)Oc1ccccc1 (stereo partly specified)
logD: 2.6

Could you now look at the following compound, please?
[ask] // returns reported logD for input C[C@H](NP(=O)(OC[C@H]1O[C@@](C#N)(c2ccc3c(N)ncnn23)[C@](C)(O)[C@@H]1O)Oc1ccccc1)C(=O)OC(C)(C)C (stereo partly specified)
[reply] 2.2

====

Below, each entry is listed with its recorded Papp A→B at 10 µM.
# test.name: Permeability across apical to basolateral side in human Caco2 cells at 10 uM after 1 to 2 hrs by LC/MS/MS analysis
# Format: ADME, cell-based
# stated.conditions: Caco-2, read-out: permeability
Give just the number in ×10⁻⁶ cm/s; leave the unit off.

The following molecules have reported results that may help.
molecule: CCOC(=O)[C@H](C)NP(=O)(OC[C@H]1O[C@@](C#N)(c2ccc3c(N)ncnn23)[C@](C)(O)[C@@H]1O)Oc1ccccc1 (stereo not given in full)
recorded.measurement: 0.17
//
molecule: C[C@H](NP(=O)(OC[C@H]1O[C@@](C#N)(c2ccc3c(N)ncnn23)[C@](C)(O)[C@@H]1O)Oc1ccccc1)C(=O)OCC(C)(C)C (stereo not given in full)
recorded.measurement: 0.69
//
molecule: CCC(CC)COC(=O)[C@H](C)NP(=O)(OC[C@H]1O[C@@](C#N)(c2ccc3c(N)ncnn23)[C@](C)(O)[C@@H]1O)Oc1ccccc1 (stereo not given in full)
recorded.measurement: 0.36
//
molecule: CC(C)OC(=O)[C@H](C)NP(=O)(OC[C@H]1O[C@@](C#N)(c2ccc3c(N)ncnn23)[C@](C)(O)[C@@H]1O)Oc1ccccc1 (stereo not given in full)
recorded.measurement: 0.16
//
molecule: CC[C@H](C)OC(=O)[C@H](C)NP(=O)(OC[C@H]1O[C@@](C#N)(c2ccc3c(N)ncnn23)[C@](C)(O)[C@@H]1O)Oc1ccccc1 (stereo not given in full)
recorded.measurement: 1.47

[ask] // returns reported Papp A→B at 10 µM for input CC[C@@H](C)OC(=O)[C@H](C)NP(=O)(OC[C@H]1O[C@@](C#N)(c2ccc3c(N)ncnn23)[C@](C)(O)[C@@H]1O)Oc1ccccc1 (stereo not given in full)
[reply] 0.75

[ask] // returns reported Papp A→B at 10 µM for input C[C@H](NP(=O)(OC[C@H]1O[C@@](C#N)(c2ccc3c(N)ncnn23)[C@](C)(O)[C@@H]1O)Oc1ccccc1)C(=O)OC(C)(C)C (stereo not given in full)
[reply] 0.67

[ask] // returns reported Papp A→B at 10 µM for input C[C@H](NP(=O)(OC[C@H]1O[C@@](C#N)(c2ccc3c(N)ncnn23)[C@](C)(O)[C@@H]1O)Oc1ccccc1)C(=O)OCc1ccccc1 (stereo not given in full)
[reply] 3.35

[ask] // returns reported Papp A→B at 10 µM for input C[C@H](NP(=O)(OC[C@H]1O[C@@](C#N)(c2ccc3c(N)ncnn23)[C@](C)(O)[C@@H]1O)Oc1ccccc1)C(=O)OC1CCCC1 (stereo not given in full)
[reply] 0.37

[ask] // returns reported Papp A→B at 10 µM for input COC(=O)[C@H](C)NP(=O)(OC[C@H]1O[C@@](C#N)(c2ccc3c(N)ncnn23)[C@](C)(O)[C@@H]1O)Oc1ccccc1 (stereo not given in full)
[reply] 0.41
